Origin of values: patent US20220282217A1

measured.on: T1, HLA-A11.01 (human)
T1 construct: Purified class I MHC
assay.method.text: competition with radiolabeled reference peptide, purified MHC I
readout: pIC50
// scale note: pIC50 = -log10(conc_M); give the bare number

Solved cases (3 shown):
[
  {
    "binder": "AMTTSSSQK (also called TGFBR2(-1))",
    "readout": "pIC50",
    "endpoint.result": 6.79
  },
  {
    "binder": "KISNWSLKK (also called SMAP1(-1))",
    "readout": "pIC50",
    "endpoint.result": 8.01
  },
  {
    "binder": "SLKKVPALK (also called SMAP1(-1))",
    "readout": "pIC50",
    "endpoint.result": 6.89
  }
]

Consider the record given below.
Prompt: Sample SAMTTSSSQK (also called TGFBR2(-1)) — what was its pIC50?
Response: 7.80
